# target.or.system: Anti-CD28 Fab (SEQ ID NOs: 696, 697)
# Sequence (VH, as listed by the source, chain 1 of 2): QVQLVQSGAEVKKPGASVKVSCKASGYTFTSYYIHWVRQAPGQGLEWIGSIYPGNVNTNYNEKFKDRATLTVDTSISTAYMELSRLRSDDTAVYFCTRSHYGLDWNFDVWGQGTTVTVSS
# Sequence (VL, as listed by the source, chain 2 of 2): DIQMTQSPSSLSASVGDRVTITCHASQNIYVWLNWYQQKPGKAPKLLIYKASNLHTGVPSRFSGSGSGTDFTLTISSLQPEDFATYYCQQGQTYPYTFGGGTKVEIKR
# assay.text: phage binding ELISA; captured Fab pre-incubated with CD28 antigen as competitor, anti-M13 HRP
Reported Anti-CD28 Fab signal in the presence of CD28 values follow for various binders
Give the value as a plain number.

Consider the worked cases shown below.
YCEGHDWMYMEKCL (Tested as clonal phage supernatant) [Phage-1248] = 0.07
YCDGHVLMYLAKCL (Tested as clonal phage supernatant) [Phage-1250] = 0.09
YCDGHTEAYMSKCL (Tested as clonal phage supernatant) [Phage-1254] = 0.06
YCEGHSQEYKAKCF (Tested as clonal phage supernatant) [Phage-1249] = 0.07
YCEGHSSAYMAKCL (Tested as clonal phage supernatant) [Phage-1251] = 0.07

Please fill in: Anti-CD28 Fab signal in the presence of CD28 reported for YCDGHSTLYMQKCL (Tested as clonal phage supernatant) [Phage-1253] = 0.06

Please fill in: Anti-CD28 Fab signal in the presence of CD28 reported for YCDGHLLMYMEKCL (Tested as clonal phage supernatant) [Phage-1247] = 0.06

Please fill in: Anti-CD28 Fab signal in the presence of CD28 reported for YCEGHISEYMGKCL (Tested as clonal phage supernatant) [Phage-1255] = 0.05

Please fill in: Anti-CD28 Fab signal in the presence of CD28 reported for YCDGHFTWYMAKCL (Tested as clonal phage supernatant) [Phage-1256] = 0.08

Please fill in: Anti-CD28 Fab signal in the presence of CD28 reported for YCDGHTAQYMWKCL (Tested as clonal phage supernatant) [Phage-1259] = 0.07

Please fill in: Anti-CD28 Fab signal in the presence of CD28 reported for YCEGHLSEYIGKCL (Tested as clonal phage supernatant) [Phage-1258] = 0.06

Please fill in: Anti-CD28 Fab signal in the presence of CD28 reported for YCEGHLAAYMYKCL (Tested as clonal phage supernatant) [Phage-1252] = 0.07

Please fill in: Anti-CD28 Fab signal in the presence of CD28 reported for YCDGHIAEYRSKCL (Tested as clonal phage supernatant) [Phage-1257] = 0.07
